Known hEphA1-SEAP-: absorbance at 450 nm, percentage with respect to hEphA4-SEAP-His as 100% of a selection of molecules
Study system: T1, human EphA1 (Homo sapiens, UniProt P21709)
T1 construct: a protein of the extracellular region of each human Eph receptor fused with the SEAP protein and the His tag; made in house; host or cells: Expi293F cells (culture supernatant)
T1 sequence (P21709 26-547 limits assumed): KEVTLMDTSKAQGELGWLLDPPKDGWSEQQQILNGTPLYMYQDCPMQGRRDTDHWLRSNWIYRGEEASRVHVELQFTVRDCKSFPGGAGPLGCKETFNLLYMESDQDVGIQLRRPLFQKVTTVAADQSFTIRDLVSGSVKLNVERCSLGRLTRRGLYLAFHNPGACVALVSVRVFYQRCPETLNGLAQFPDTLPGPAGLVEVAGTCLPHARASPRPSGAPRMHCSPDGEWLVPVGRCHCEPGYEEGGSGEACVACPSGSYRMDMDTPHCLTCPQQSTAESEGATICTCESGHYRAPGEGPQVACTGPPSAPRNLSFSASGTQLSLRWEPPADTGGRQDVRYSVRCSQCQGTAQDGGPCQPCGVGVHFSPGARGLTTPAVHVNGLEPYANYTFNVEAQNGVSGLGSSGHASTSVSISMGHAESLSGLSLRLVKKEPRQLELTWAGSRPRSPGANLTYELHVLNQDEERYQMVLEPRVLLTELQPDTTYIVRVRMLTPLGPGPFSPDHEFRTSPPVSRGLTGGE
Experimental protocol: Selectivity ELISA of humanized antibodies for human Eph receptor
Type: binding
Condition info: coated protein 1 nM
Parameter: hEphA1-SEAP-: absorbance at 450 nm, percentage with respect to hEphA4-SEAP-His as 100%

Molecule	Measured result
85 (antibody, V domains shown, constant regions without entry; synthetic humanized antibody light chain variable region sequence; synthetic humanized antibody heavy chain variable region sequence) VL: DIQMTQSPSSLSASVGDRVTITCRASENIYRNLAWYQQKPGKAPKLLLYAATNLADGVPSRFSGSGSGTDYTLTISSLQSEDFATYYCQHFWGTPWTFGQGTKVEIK VH: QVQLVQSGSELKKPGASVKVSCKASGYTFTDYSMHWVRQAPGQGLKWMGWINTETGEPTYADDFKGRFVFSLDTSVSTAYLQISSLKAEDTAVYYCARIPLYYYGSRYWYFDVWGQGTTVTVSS	5.0%
142 (antibody, V domains shown, synthetic humanized antibody heavy chain variable region sequence; synthetic humanized antibody light chain variable region sequence) VH: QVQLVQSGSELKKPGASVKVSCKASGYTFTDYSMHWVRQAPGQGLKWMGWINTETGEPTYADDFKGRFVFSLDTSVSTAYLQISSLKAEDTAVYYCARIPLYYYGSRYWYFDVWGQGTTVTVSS VL: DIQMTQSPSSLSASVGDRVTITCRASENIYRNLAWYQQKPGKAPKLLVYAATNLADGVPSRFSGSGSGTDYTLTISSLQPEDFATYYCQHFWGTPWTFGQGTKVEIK	5.6%
71 (antibody, V domains shown, synthetic humanized antibody heavy chain variable region sequence; synthetic humanized antibody light chain variable region sequence) VH: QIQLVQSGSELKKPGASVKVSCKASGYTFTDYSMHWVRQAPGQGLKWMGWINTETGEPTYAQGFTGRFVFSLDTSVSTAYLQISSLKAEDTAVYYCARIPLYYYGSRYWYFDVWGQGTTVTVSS VL: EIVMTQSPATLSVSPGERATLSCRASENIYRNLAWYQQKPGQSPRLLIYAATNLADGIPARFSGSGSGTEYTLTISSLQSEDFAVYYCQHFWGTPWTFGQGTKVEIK	5.6%
83 (antibody, V domains shown, constant regions without entry; synthetic humanized antibody light chain variable region sequence; synthetic humanized antibody heavy chain variable region sequence) VL: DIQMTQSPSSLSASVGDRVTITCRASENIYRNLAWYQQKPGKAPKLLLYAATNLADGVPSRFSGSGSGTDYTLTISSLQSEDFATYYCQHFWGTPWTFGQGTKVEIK VH: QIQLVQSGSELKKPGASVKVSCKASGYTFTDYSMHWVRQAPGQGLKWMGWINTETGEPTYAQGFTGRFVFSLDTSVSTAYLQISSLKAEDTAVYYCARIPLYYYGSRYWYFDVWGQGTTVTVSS	5.7%
